For each of the compounds below, state its GI50.
System: SN12C
Assay: NCI tumour cell line growth inhibition, 48 h
Calls of active or inactive are those of the source. Rule as the data show it: active = GI50 up to about 1.1 µM and inactive = higher.

Query :: Which GI50 value belongs to Cc1cc(-c2nc3cc(O)ccc3s2)ccc1N ?
Result :: 28.8 µM (inactive)

Query :: Which GI50 value belongs to N#CCc1ccc(C(C#N)/C(CCCC(=O)Nc2cccc([N+](=O)[O-])c2)=N\NC(=O)NN)cc1 (centres undefined) ?
Result :: > 100 µM (inactive)

Query :: Which GI50 value belongs to N#Cc1ccccc1OCCOc1ccccc1C#N ?
Result :: > 100 µM (inactive)

Query :: Which GI50 value belongs to N=c1sc2ccccc2n1CC[S-].c1ccc2c(c1)sc1[n+]2CCS1 ?
Result :: 21.1 µM (inactive)

Query :: Which GI50 value belongs to CC(C)=CC(=O)c1[nH]c2ccccc2c1CC(=O)NCCc1cn(C(c2ccccc2)(c2ccccc2)c2ccccc2)cn1 ?
Result :: 2.81 µM (inactive)

Query :: Which GI50 value belongs to CCOC(=O)c1c(N)nn2c1cc1cccccc12 ?
Result :: 32.9 µM (inactive)

Query :: Which GI50 value belongs to CCOP(=O)(OCC)/C(C#N)=C/c1[nH]cnc1C ?
Result :: > 100 µM (inactive)

Query :: Which GI50 value belongs to C=C[C@]1(C)CCC2=C(CCC3C2(C)CCC[C@]3(C)CO)C1 (some centres undefined) ?
Result :: 20.2 µM (inactive)

Query :: Which GI50 value belongs to CCOc1c(OC)cc(-c2nc3n(n2)C(=O)C(CC)S3)cc1OC (centres undefined) ?
Result :: > 10 µM (inactive)

Query :: Which GI50 value belongs to C/C(CC(=O)NC1=CC=C(NC(=O)C/C(C)=N\Nc2ccccc2)CC1)=N/Nc1ccccc1 ?
Result :: > 100 µM (inactive)

Query :: Which GI50 value belongs to COc1ccc(C(=O)/C=C/c2ccc(OCCCCCCCCCCOc3ccc(/C=C/C(=O)c4ccc(OC)cc4)cc3)cc2)cc1 ?
Result :: > 100 µM (inactive)

Query :: Which GI50 value belongs to N/N=C(\CCN1CCCC1)CC(c1ccccc1)c1c(O)c2ccccc2oc1=O (centres undefined) ?
Result :: > 100 µM (inactive)

Query :: Which GI50 value belongs to CC(=O)c1c(O)c2c([nH]c1=O)CCCC2 ?
Result :: 22.5 µM (inactive)

Query :: Which GI50 value belongs to Cc1cccc(NC(=O)CSc2nnc(Cc3ccccc3)o2)c1 ?
Result :: > 100 µM (inactive)

Query :: Which GI50 value belongs to COCCCNC(=O)CC(=O)NCCCOC ?
Result :: > 100 µM (inactive)

Query :: Which GI50 value belongs to COc1cccc(CCNC(=O)Cc2ccccc2CCO)c1 ?
Result :: > 100 µM (inactive)

Query :: Which GI50 value belongs to Cc1nc2ccc(NC3OC(CO)C(O)C(O)C3O)cc2c(=O)n1-c1ccccc1 (centres undefined) ?
Result :: > 100 µM (inactive)

Query :: Which GI50 value belongs to CN1CCN(CC(=O)N2CCCn3c2nc2ccccc2c3=O)CC1 ?
Result :: > 100 µM (inactive)

Query :: Which GI50 value belongs to CCSC1=CC2(O)N(CCc3ccc(OC)c(OC)c3)C(=O)CC2(C(=O)OC)CC1=O (centres undefined) ?
Result :: 19.6 µM (inactive)

Query :: Which GI50 value belongs to O=[N+]([O-])C(=C1c2ccccc2-c2ccccc21)[N+](=O)[O-] ?
Result :: > 100 µM (inactive)

Query :: Which GI50 value belongs to CS(=O)(=O)Oc1cccc(/C=N/N=C(\N)NO)c1 ?
Result :: 29.2 µM (inactive)

Query :: Which GI50 value belongs to Clc1ccc(-c2ccc(-c3nnc(CCc4nnc(-c5ccc(-c6ccc(Cl)cc6)o5)o4)o3)o2)cc1 ?
Result :: > 100 µM (inactive)

Query :: Which GI50 value belongs to COC(OC)[C@@H]1OC[C@H](n2cnc3c(N)ncnc32)[C@H]1O ?
Result :: > 100 µM (inactive)

Query :: Which GI50 value belongs to COC(=O)C(=O)C(CC(=O)Nc1c(C)cccc1C)C(=O)OC (centres undefined) ?
Result :: > 100 µM (inactive)

Query :: Which GI50 value belongs to COc1cc2c(cc1O)NC(=O)[C@@H]1CCCN1C2=O ?
Result :: > 100 µM (inactive)

Query :: Which GI50 value belongs to COc1ccc(-c2oc3c(OC)c(OC)cc(O)c3c(=O)c2OC)cc1 ?
Result :: > 100 µM (inactive)

Query :: Which GI50 value belongs to COc1ccc(CNC(=O)[C@H](Cc2ccc(O)cn2)NC(C)=O)cc1 ?
Result :: > 100 µM (inactive)

Query :: Which GI50 value belongs to CC1=CC2C(O1)C1C(=O)C=CC(=O)C1=CC2[N+](=O)[O-] (centres undefined) ?
Result :: 18.1 µM (inactive)

Query :: Which GI50 value belongs to Nc1nc2c(c(=O)[n-]1)[n+](CCO)cn2C1OC(CO)C(O)C1O (centres undefined) ?
Result :: > 100 µM (inactive)

Query :: Which GI50 value belongs to COC1=CCC2=C(CCN(C(=O)C3CC3)C2Cc2ccc(OC)c(O)c2)C1 (centres undefined) ?
Result :: 49.3 µM (inactive)

Query :: Which GI50 value belongs to Cc1ncc([N+](=O)[O-])n1CCNC(=O)CCCCCn1ccnc1[N+](=O)[O-] ?
Result :: > 100 µM (inactive)

Query :: Which GI50 value belongs to O=C(N/C(=C\c1ccc(/C=C(\NC(=O)c2ccccc2)c2nc3ccccc3[nH]2)cc1)c1nc2ccccc2[nH]1)c1ccccc1 ?
Result :: > 100 µM (inactive)

Query :: Which GI50 value belongs to Clc1ccc(C2C3COc4ccccc4C3=NN2c2ccccc2)cc1 (centres undefined) ?
Result :: 43.6 µM (inactive)

Query :: Which GI50 value belongs to Cc1cc(OCc2nnc3n2S(=O)(=O)c2ccccc2N3C)ccc1Cl ?
Result :: 32.4 µM (inactive)

Query :: Which GI50 value belongs to O=C1NC(=S)N(c2ccccc2)C1=O ?
Result :: > 100 µM (inactive)

Query :: Which GI50 value belongs to NC1CC(=O)c2c(I)sc(I)c21 (centres undefined) ?
Result :: 27.3 µM (inactive)

Query :: Which GI50 value belongs to N#Cc1c(N)nc(S)c(C#N)c1-c1ccccc1 ?
Result :: > 100 µM (inactive)

Query :: Which GI50 value belongs to O=C(O)Cc1ccc([N+](=O)[O-])cc1[N+](=O)[O-] ?
Result :: > 100 µM (inactive)

Query :: Which GI50 value belongs to CNc1ncnc2c1cnn2Cc1cn(COCC(O)CO)nn1 (centres undefined) ?
Result :: > 100 µM (inactive)

Query :: Which GI50 value belongs to CCCNCCCCC(NC(C)=O)C(=O)NCc1ccccc1 (centres undefined) ?
Result :: > 100 µM (inactive)

Query :: Which GI50 value belongs to O=C(Nc1cccc(C(F)(F)F)c1)c1cc(Br)cc(Br)c1O ?
Result :: 3.59 µM (inactive)

Query :: Which GI50 value belongs to CSc1nc(C)cc(N(C)c2ccccc2)n1 ?
Result :: 41.8 µM (inactive)

Query :: Which GI50 value belongs to CN(C(=O)Cc1cccc(N=C=S)c1)[C@H]1CCCC[C@@H]1N1CCCC1 ?
Result :: 15.2 µM (inactive)

Query :: Which GI50 value belongs to CC(=O)c1c(-c2ccc(Cl)cc2)c(C#N)c(=S)n(C2OC(CO)C(O)C(O)C2O)c1C (centres undefined) ?
Result :: 52.6 µM (inactive)
